Reference source: patent US20260242356A1

Measured on: human NaV sodium channel α-subunit NaV 1.8 (Homo sapiens, UniProt Q9Y5Y9)
Construct: transfected with the full-length cDNA coding for the appropriate human NaV sodium channel α-subunit NaV 1.8
Sequence (Q9Y5Y9 whole entry): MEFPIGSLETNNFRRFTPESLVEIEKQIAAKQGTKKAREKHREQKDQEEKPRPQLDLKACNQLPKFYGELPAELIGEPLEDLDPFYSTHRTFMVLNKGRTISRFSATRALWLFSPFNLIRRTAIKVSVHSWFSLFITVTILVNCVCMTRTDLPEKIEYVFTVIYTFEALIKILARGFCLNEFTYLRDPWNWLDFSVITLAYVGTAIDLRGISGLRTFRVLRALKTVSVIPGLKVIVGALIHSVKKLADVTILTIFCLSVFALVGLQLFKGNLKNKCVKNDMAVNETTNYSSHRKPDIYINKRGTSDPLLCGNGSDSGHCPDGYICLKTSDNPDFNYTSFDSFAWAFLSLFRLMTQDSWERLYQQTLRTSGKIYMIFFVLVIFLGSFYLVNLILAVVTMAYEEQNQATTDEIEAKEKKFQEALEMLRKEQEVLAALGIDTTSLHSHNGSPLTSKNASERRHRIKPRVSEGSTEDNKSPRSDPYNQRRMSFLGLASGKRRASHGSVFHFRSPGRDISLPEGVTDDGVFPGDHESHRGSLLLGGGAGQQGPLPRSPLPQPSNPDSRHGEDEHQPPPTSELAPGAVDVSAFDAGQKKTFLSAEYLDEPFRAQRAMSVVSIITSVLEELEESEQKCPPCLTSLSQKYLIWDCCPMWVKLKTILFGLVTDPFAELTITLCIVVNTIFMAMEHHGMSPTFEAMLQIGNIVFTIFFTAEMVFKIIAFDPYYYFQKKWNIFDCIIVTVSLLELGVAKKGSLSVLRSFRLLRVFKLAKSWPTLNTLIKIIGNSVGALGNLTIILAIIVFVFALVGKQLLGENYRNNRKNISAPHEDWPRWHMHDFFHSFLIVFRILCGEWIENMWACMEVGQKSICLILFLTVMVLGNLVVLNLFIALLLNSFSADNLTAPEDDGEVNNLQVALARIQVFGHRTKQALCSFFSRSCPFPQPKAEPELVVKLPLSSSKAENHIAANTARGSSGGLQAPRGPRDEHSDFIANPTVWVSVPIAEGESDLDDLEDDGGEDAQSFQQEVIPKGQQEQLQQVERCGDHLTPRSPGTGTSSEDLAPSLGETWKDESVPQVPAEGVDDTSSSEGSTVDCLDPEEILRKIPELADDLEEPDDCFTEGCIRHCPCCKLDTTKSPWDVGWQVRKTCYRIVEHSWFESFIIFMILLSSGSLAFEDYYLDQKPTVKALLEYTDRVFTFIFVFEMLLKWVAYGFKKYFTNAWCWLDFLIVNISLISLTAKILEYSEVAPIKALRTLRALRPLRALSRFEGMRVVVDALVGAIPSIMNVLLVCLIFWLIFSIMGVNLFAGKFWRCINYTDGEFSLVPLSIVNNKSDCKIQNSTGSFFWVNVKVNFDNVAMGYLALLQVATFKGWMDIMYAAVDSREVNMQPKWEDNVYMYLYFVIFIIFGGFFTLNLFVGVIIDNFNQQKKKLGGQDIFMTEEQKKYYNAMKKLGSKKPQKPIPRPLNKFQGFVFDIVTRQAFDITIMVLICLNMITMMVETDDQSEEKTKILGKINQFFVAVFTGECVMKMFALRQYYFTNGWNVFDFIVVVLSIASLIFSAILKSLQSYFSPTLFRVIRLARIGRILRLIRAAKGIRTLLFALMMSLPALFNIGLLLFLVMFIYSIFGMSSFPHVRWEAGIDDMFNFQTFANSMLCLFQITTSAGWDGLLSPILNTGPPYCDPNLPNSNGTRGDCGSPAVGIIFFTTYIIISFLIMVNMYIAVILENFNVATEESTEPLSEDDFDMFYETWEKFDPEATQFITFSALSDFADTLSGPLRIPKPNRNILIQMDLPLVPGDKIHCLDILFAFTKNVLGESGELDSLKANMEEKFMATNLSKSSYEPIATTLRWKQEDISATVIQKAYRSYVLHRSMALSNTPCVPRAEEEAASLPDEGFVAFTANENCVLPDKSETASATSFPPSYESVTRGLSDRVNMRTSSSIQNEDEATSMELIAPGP
Test: NaV inhibition assay, whole-cell patch-clamp (HEKA EPC 9 amplifier)
Metric name: IC50

Here are 3 compounds together with their reported answers.
# Test smiles, IC50
rows = [
    ("NS(=O)(=O)c1cccc(NC(=O)c2cc3ccc(Cl)cc3nc2N2CCCC(F)(F)CC2)c1", "20 to 100 nM"),
    ("NS(=O)(=O)c1cccc(NC(=O)c2cc3ccc(F)cc3nc2N2CCCC(F)(F)CC2)c1", "< 20 nM"),
    ("NC(=O)c1cccc(NC(=O)c2cc3ccccc3nc2N2CCCC(F)(F)CC2)c1", "< 20 nM"),
]

Ask: Value lookup for IC50; key = `NS(=O)(=O)c1cccc(NC(=O)c2cc3c(nc2N2CCCC(F)(F)CC2)CCCC3)c1`
Reply: 20 to 100 nM

* * *

Measured on: human NaV sodium channel α-subunit NaV 1.8 (Homo sapiens)
Construct: transfected with the full-length cDNA coding for the appropriate human NaV sodium channel α-subunit NaV 1.8; expressed in transfected cells; host or cells: HEK293 cells
Test: NaV inhibition assay, whole-cell patch-clamp (HEKA EPC 9 amplifier)
Assay type: cell-based
pIC50: −log10 of the molar value.
Metric name: pIC50

# Compound, Measured on, Metric name, Test value
rows = [
    ("NS(=O)(=O)c1cccc(NC(=O)c2cc3ccccc3nc2N2CCCC(F)(F)CC2)c1 [Compound 2]", "human NaV sodium channel α-subunit NaV 1.8 (Homo sapiens)", "pIC50", "> 7.70"),
    ("NS(=O)(=O)c1cccc(NC(=O)c2cc3cnccc3nc2N2CCCC(F)(F)CC2)c1 [Compound 20]", "human NaV sodium channel α-subunit NaV 1.8 (Homo sapiens)", "pIC50", "7.00 to 7.70"),
    ("CS(=N)(=O)c1cccc(NC(=O)c2cc3ccccc3nc2N2CCCC(F)(F)CC2)c1 (centres unmarked) [Compound 1]", "human NaV sodium channel α-subunit NaV 1.8 (Homo sapiens)", "pIC50", "> 7.70"),
    ("COc1ccc2nc(N3CCCC(F)(F)CC3)c(C(=O)Nc3cccc(S(N)(=O)=O)c3)cc2c1 [Compound 11]", "human NaV sodium channel α-subunit NaV 1.8 (Homo sapiens)", "pIC50", "> 7.70"),
    ("CS(=O)(=O)c1cccc(NC(=O)c2nc3ccccc3nc2N2CCCC(F)(F)CC2)c1 [Compound 6]", "human NaV sodium channel α-subunit NaV 1.8 (Homo sapiens)", "pIC50", "> 7.70"),
]

Look at each compound and report its pIC50.
1. COc1ccc2cc(C(=O)Nc3cccc(S(N)(=O)=O)c3)c(N3CCCC(F)(F)CC3)nc2c1 [Compound 16]
2. NC(=O)c1cccc(NC(=O)c2nc3ccccc3nc2N2CCCC(F)(F)CC2)c1 [Compound 14]
3. NS(=O)(=O)c1cccc(NC(=O)c2cc3cc(C(F)(F)F)ccc3nc2N2CCCC(F)(F)CC2)c1 [Compound 17]

Reply:
["7.00 to 7.70", "7.00 to 7.70", "> 7.70"]

* * *

For each record, write down the corresponding pIC50.
Measured on: human NaV sodium channel α-subunit NaV 1.8 (Homo sapiens, UniProt Q9Y5Y9)
Construct: transfected with the full-length cDNA coding for the appropriate human NaV sodium channel α-subunit NaV 1.8
Test: NaV inhibition assay, whole-cell patch-clamp (HEKA EPC 9 amplifier)
pIC50: −log10 of the molar value.

Here are 7 molecules together with their reported answers.
# Molecule, pIC50
rows = [
    ("NS(=O)(=O)c1cccc(NC(=O)c2cc3cc(Cl)ccc3nc2N2CCCC(F)(F)CC2)c1 [Compound 12]", "> 7.70"),
    ("Nc1noc2ccc(NC(=O)c3cc4ccccc4nc3N3CCCC(F)(F)CC3)cc12 [Compound 3]", "> 7.70"),
    ("NS(=O)(=O)c1cccc(NC(=O)c2cc3cc(F)c(F)cc3nc2N2CCCC(F)(F)CC2)c1 [Compound 10]", "7.00 to 7.70"),
    ("CS(=N)(=O)c1cccc(NC(=O)c2nc3ccccc3nc2N2CCCC(F)(F)CC2)c1 (centres unmarked) [Compound 7]", "7.00 to 7.70"),
    ("NS(=O)(=O)c1cccc(NC(=O)c2nc3ccccc3nc2N2CCCC(F)(F)CC2)c1 [Compound 8]", "7.00 to 7.70"),
    ("CC1CN(c2nc3ccccc3cc2C(=O)Nc2cccc(S(N)(=O)=O)c2)CCC1(F)F (centres unmarked) [Compound 5]", "> 7.70"),
    ("NS(=O)(=O)c1cccc(NC(=O)c2cc3ccncc3nc2N2CCCC(F)(F)CC2)c1 [Compound 15]", "> 7.70"),
]

Please turn your attention to the following entry.
Ask: Value lookup for pIC50; key = NS(=O)(=O)c1cccc(NC(=O)c2cc3cc(F)ccc3nc2N2CCCC(F)(F)CC2)c1 [Compound 9]
Reply: 7.00 to 7.70
